molecular target: T1, C-terminal truncated RSV F protein, secreted from recombinant baculovirus-infected cells (respiratory syncytial virus (strain not …, UniProt P03420 26-526)); test: SPR (BIAcore), F protein immobilized, Fab injected
T1 construct: also called F antigen of RSV
T1 sequence (P03420 26-526): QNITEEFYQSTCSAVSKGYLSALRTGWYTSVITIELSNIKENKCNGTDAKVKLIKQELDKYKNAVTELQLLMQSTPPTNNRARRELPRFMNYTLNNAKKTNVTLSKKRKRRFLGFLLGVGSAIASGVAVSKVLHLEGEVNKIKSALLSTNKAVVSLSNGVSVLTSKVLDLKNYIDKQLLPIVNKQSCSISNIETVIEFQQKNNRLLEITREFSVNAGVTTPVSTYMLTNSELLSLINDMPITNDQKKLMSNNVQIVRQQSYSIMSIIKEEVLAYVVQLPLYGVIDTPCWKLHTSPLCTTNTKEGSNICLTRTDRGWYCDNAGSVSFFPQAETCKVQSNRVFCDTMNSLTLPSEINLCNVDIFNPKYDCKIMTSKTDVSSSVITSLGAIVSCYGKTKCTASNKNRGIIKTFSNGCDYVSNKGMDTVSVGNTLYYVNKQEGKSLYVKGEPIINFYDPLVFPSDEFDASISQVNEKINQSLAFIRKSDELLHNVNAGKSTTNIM
# kon annotations
Response body: numeric value in M⁻¹ s⁻¹, unit text excluded.

Clone 5 (Fab) (Fab, V domains shown) VH: QVTLRESGPALVKPTQTLTLTCTFSGFSLSTAGMSVGWIRQPPGKALEWLADIWWDDKKDYNPSLKSRLTISKDTSKNQVVLKVTNMDPADTATYYCARDMITNFYFDVWGQGTTVTVSS VL: DIQMTQSPSTLSASVGDRVTITCSASSSVGYMHWYQQKPGKAPKLLIYDTFKLASGVPSRFSGSGSGTEFTLTISSLQPDDFATYYCFQGSGYPFTFGGGTKVEIK    416000
Clone 1 (Fab) (Fab, V domains shown) VH: QVTLRESGPALVKPTQTLTLTCTFSGFSLSTAGMSVGWIRQPPGKALEWLADIWWDDKKDYNPSLKSRLTISKDTSKNQVVLKVTNMDPADTATYYCARDMITNFYFDVWGQGTTVTVSS VL: DIQMTQSPSTLSASVGDRVTITCSASSSVGYMHWYQQKPGKAPKLLIYDTFKLTSGVPSRFSGSGSGTEFTLTISSLQPDDFATYYCFQGSGYPFTFGGGTKVEIK    365000

Now for a further binder.
Measured kon, Clone 12 (Fab) (Fab, V domains shown) VH: QVTLRESGPALVKPTQTLTLTCTFSGFSLSTAGMSVGWIRQPPGKALEWLADIWWDGKKHYNPSLKDRLTISKDTSKNQVVLKVTNMDPADTATYYCARDMIFNFYFDVWGQGTTVTVSS VL: DIQMTQSPSTLSASVGDRVTITCSLSSRVGYMHWYQQKPGKAPKLLIYDTFKLSSGVPSRFSGSGSGTEFTLTISSLQPDDFATYYCFQGSGYPFTFGGGTKVEIK : 790000

Numbers sourced from patent US20020098189A1.
